Below, each entry is listed alongside its reported viability, T/C.
# System: HUVEC/MSC spheroids viability
# procedure.details: Human HUVEC/MSC cell line growth inhibition [KRAS2];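 also: percent of DMSO vehicle control luminescence so 100% = untreated viability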
# measurement.context: second compound 3.16 µM; first compound 0.1 µM; active compounds read low
Note: unit % is implicit; provide only the numeric part.

Example entries begin here.
CC(C)NCC(C(=O)N1CCN(c2ncnc3c2C(C)CC3O)CC1)c1ccc(Cl)cc1 (stereo not given) + COc1cc2nc(C)nc(NC(C)c3cc(N)cc(C(F)(F)F)c3)c2cc1OC1CCOC1 ... 94.2
COc1cc(Nc2ncc3c(n2)-c2ccc(Cl)cc2C(c2c(F)cccc2OC)=NC3)ccc1C(=O)O + CC1OCC2(CCN(c3cnc(Sc4ccnc(N)c4Cl)c(N)n3)CC2)C1N ... 91
O=C(c1cc(Cc2n[nH]c(=O)c3ccccc23)ccc1F)N1CCN(C(=O)C2CC2)CC1 + C=CC(=O)N1CCN(c2nc(=O)n(-c3c(C)ccnc3C(C)C)c3nc(-c4c(O)cccc4F)c(F)cc23)C(C)C1 ... 118

Problem: Find the recorded viability, T/C belonging to CCNC(=O)CC1N=C(c2ccc(Cl)cc2)c2cc(OC)ccc2-n2c(C)nnc21 (stereo not given) + CNCc1ccccc1-c1csc(C(C)Nc2nc(C)nc3cc(OC)c(OC)cc23)c1 and report it.
Solution: 93.6

----------
# Tested on: HUVEC/MSC spheroids viability
# procedure.details: Human HUVEC/MSC cell line growth inhibition [KRAS2];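 also: percent of DMSO vehicle control luminescence so 100% = untreated viability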
# measurement.context: second compound 3.16 µM; first compound 1 µM; active compounds read low
observable: viability, T/C (%)
Note: unit % is implicit; provide only the numeric part.

Example entries begin here.
COc1cc2nccc(Oc3ccc(NC(=O)C4(C(=O)Nc5ccc(F)cc5)CC4)cc3)c2cc1OC + CNCc1ccccc1-c1csc(C(C)Nc2nc(C)nc3cc(OC)c(OC)cc23)c1 ... 115
O=C(c1cc(Cc2n[nH]c(=O)c3ccccc23)ccc1F)N1CCN(C(=O)C2CC2)CC1 + CNCc1ccccc1-c1csc(C(C)Nc2nc(C)nc3cc(OC)c(OC)cc23)c1 ... 105
O=C(c1cc(Cc2n[nH]c(=O)c3ccccc23)ccc1F)N1CCN(C(=O)C2CC2)CC1 + CC1OCC2(CCN(c3cnc(Sc4ccnc(N)c4Cl)c(N)n3)CC2)C1N ... 89.8

Problem: Find the recorded viability, T/C belonging to COc1cc2nccc(Oc3ccc(NC(=O)C4(C(=O)Nc5ccc(F)cc5)CC4)cc3)c2cc1OC + CC1OCC2(CCN(c3cnc(Sc4ccnc(N)c4Cl)c(N)n3)CC2)C1N and report it.
Solution: 62.6

Problem: Same lookup for CC1(C)CCC(CN2CCN(c3ccc(C(=O)NS(=O)(=O)c4ccc(NCC5CCOCC5)c([N+](=O)[O-])c4)c(Oc4cnc5[nH]ccc5c4)c3)CC2)=C(c2ccc(Cl)cc2)C1 + CNCc1ccccc1-c1csc(C(C)Nc2nc(C)nc3cc(OC)c(OC)cc23)c1 , please.
Solution: 92.2

Problem: Same lookup for CCN1CCN(Cc2ccc(Nc3ncc(F)c(-c4cc(F)c5nc(C)n(C(C)C)c5c4)n3)nc2)CC1 + C=CC(=O)N1CCN(c2nc(=O)n(-c3c(C)ccnc3C(C)C)c3nc(-c4c(O)cccc4F)c(F)cc23)C(C)C1 , please.
Solution: 162

Problem: Same lookup for Cn1nccc1Nc1nccc(-c2cc3c(s2)C(C)(C)N(CCN2CCOCC2)C3=O)n1 + CNCc1ccccc1-c1csc(C(C)Nc2nc(C)nc3cc(OC)c(OC)cc23)c1 , please.
Solution: 99.9

Problem: Same lookup for CC1OCC2(CCN(c3cnc(Sc4ccnc(N)c4Cl)c(N)n3)CC2)C1N (stereo not given) + CNCc1ccccc1-c1csc(C(C)Nc2nc(C)nc3cc(OC)c(OC)cc23)c1 , please.
Solution: 89.2

Problem: Same lookup for Cn1nccc1Nc1nccc(-c2cc3c(s2)C(C)(C)N(CCN2CCOCC2)C3=O)n1 + COc1cc2nc(C)nc(NC(C)c3cc(N)cc(C(F)(F)F)c3)c2cc1OC1CCOC1 , please.
Solution: 104

Problem: Same lookup for COC(=O)c1ccc2c(C(=Nc3ccc(N(C)C(=O)CN4CCN(C)CC4)cc3)c3ccccc3)c(O)[nH]c2c1 + COc1cc2nc(C)nc(NC(C)c3cc(N)cc(C(F)(F)F)c3)c2cc1OC1CCOC1 , please.
Solution: 40.4
